# Assay Comment: binders of probe aFST on microarray, primary screen, stem cell growth factor project, biochemical, small-molecule microarray, fluorescence 635/667 (AID 1086);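 further: score merges 667 nm fluorescence with signal-to-noise of each printed compound spot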
# Condition Label: higher = more signal
Hi there, I'd appreciate the recorded composite z-score for every entry that follows.

Exercise: Endpoint output: composite z-score of `C=CCNC(=O)[C@@H]1[C@H]2C(=O)O[C@H](c3ccccc3)[C@H](c3ccccc3)N2[C@H](c2ccc(OCCO)cc2)[C@@]12C(=O)N(C(=O)OCCOC)c1ccccc12` . Value?
Key: 0.954

Exercise: Endpoint output: composite z-score of `COc1ccc(CCNC(=O)[C@@H]2c3ccccc3C(=O)N(C(C)C)[C@H]2c2ccc(CO)cc2)cc1` . Value?
Key: -0.36

Exercise: Endpoint output: composite z-score of C=CCC(OC(C)=O)[C@@H]1[C@@H](N(Cc2ccc(-c3ccccc3)cc2)C(=O)Cc2ccc(OC)cc2)c2cc(OCCCO)ccc2N1C(=O)c1ccc2ccccc2c1 (stereo partly drawn) . Value?
Key: 0.544

----------
# Target Of Assay: Calmodulin-1 (Homo sapiens) (UniProt P0DP23)
# Assay Comment: CALM1 binders on microarrays, EGTA buffer, profiling panel, biochemical, small-molecule microarray, Cy5-labelled CALM1 (AID 1111);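 further: labelled calmodulin applied in Tris saline Tween buffer holding calcium plus EGTA and DTT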
# Condition Label: Cy5-CALM1 binding fluorescence, higher = more signal
Result Type: composite z-score
Just the number.

Exercise: Endpoint output: composite z-score of `O=C(NCCN1CCOCC1)[C@@H]1c2ccccc2C(=O)N(CC23CC4CC(CC(C4)C2)C3)[C@H]1c1ccc(CO)cc1` . Value?
Key: 1.7

Exercise: Endpoint output: composite z-score of `COC(=O)[C@@]1(Cc2ccccc2)[C@H]2c3cc(C(=O)N(C)C)n(Cc4nc5ccccc5[nH]4)c3C[C@H]2CN1C(=O)c1ccccc1` . Value?
Key: 0.492

Exercise: Endpoint output: composite z-score of COC(=O)C1=CC(c2ccc(CO)cc2)=CC(C2CC2)N(Cc2cc3c(cc2Br)OCO3)C=C1C(=O)OC (centres undefined) . Value?
Key: 2.06

Exercise: Endpoint output: composite z-score of CC(C)N1CC=CC23O[C@@H]4/C=C\CCCOC(=O)C4[C@H]2C(=O)N(C(C)CO)[C@@H]3C1=O (some centres undefined) . Value?
Key: -0.814

----------
# Assay Comment: P. aeruginosa biofilm formation inhibitors, primary screen, PAO1 strain, BacTiter-Glo luminescence, LB-PBS (AID 1144)
# Condition Label: 12 h, higher = more signal
Classify as follows. Reported z-score greater than or equal to 0.2: YES. Reported z-score below: NO.

Exercise: Is it the case that `O=C(NC1CC1)[C@@H]1c2ccccc2C(=O)N(C2CCCCC2)[C@H]1c1ccc(CO)cc1` has z-score reaching or exceeding 0.2?
Key: YES

Exercise: Is it the case that CC(CO)N1C(=O)[C@@H]2[C@H]3C(=O)OCC=C[C@H]3OC23C=CCN(c2ccc4ccccc4c2)C(=O)[C@@H]13 (stereo partly specified) has z-score reaching or exceeding 0.2?
Key: YES

Exercise: Is it the case that `C=CCOC(=O)[C@@H]1[C@H]2C(=O)O[C@H](c3ccccc3)[C@H](c3ccccc3)N2[C@H](c2ccc(OCCOC(=O)[C@H]3C[C@H]4C(=O)N[C@@H](CCCCN(C)C)C(=O)N4[C@H]3c3cccc(OCCO)c3)cc2)[C@@]12C(=O)Nc1ccccc12` has z-score reaching or exceeding 0.2?
Key: NO

Exercise: Is it the case that `CC(C)(C)OC(=O)CC[C@@]1(C(=O)N2CCOCC2)N=C(c2ccc(OCCCO)cc2)O[C@@H]1c1ccccc1CN=[N+]=[N-]` has z-score reaching or exceeding 0.2?
Key: NO

Exercise: Is it the case that CS(=O)(=O)CCOC(=O)C1=CC(CCCO)=CC(C2CC2)N(Cc2sc3ccccc3c2Cl)C=C1C(=O)OCCS(C)(=O)=O (stereo unspecified) has z-score reaching or exceeding 0.2?
Key: NO
